Measured values drawn from ChEMBL document CHEMBL1811802 for this set.

# ASSAY EXPLANATION: Inhibition of RNA polymerase 2 in human HeLaScribe nuclear extracts after 1 hr
# STATED CONDITIONS: read-out: IC50
MEASURED PARAMETER: IC50 (µM)

// known answers, use as guide
INSERT INTO measurements (compound, recorded_number) VALUES
  ('Nc1ncnc2c1ccn2[C@@H]1O[C@H](COP(=O)(O)OP(=O)(O)OP(=O)(O)O)[C@@H](O)[C@H]1O [TUBERCIDIN TRIPHOSPHATE]', 93),
  ('Nc1ncnc2c1c(-c1ccco1)cn2[C@@H]1O[C@H](COP(=O)(O)OP(=O)(O)OP(=O)(O)O)[C@@H](O)[C@H]1O', 148);

A. Nc1ncnc2c1c(-c1cccs1)cn2[C@@H]1O[C@H](COP(=O)(O)OP(=O)(O)OP(=O)(O)O)[C@@H](O)[C@H]1O
B. Nc1ncnc2c1c(-c1ccsc1)cn2[C@@H]1O[C@H](COP(=O)(O)OP(=O)(O)OP(=O)(O)O)[C@@H](O)[C@H]1O
### Prompt Identify the item whose IC50 is the smaller number: A or B Indicate your choice by writing its label.
### Response A
